System under test: CAMK4 (Homo sapiens (Human), UniProt Q16566)
Sequence (Q16566 whole entry): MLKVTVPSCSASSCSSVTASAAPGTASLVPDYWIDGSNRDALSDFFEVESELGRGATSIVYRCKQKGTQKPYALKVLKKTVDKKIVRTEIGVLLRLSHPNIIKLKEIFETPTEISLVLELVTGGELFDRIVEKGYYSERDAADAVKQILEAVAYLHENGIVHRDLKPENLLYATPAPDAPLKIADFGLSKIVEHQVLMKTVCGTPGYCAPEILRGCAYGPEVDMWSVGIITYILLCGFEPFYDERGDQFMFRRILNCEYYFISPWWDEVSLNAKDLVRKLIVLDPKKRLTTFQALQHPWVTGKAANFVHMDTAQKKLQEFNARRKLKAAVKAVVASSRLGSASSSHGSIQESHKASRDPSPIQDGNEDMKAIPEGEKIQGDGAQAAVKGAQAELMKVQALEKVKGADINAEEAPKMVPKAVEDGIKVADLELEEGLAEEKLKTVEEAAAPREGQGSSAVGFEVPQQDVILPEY
Method description: KinaseProfiler off-target kinase profiling
Type: biochemical
Conditions: 10 μM, ATP near Km
Quantity: Avg. POC (POC)

Cc1c(-c2ccc(=O)n(C)c2)nn(-c2ccccc2)c1NC(=O)NC1CN(CC(F)(F)F)Cc2ccccc21 (stereo not shown) [Example 26]: 121
Cc1c(-c2cnn(C)c2)nn(-c2ccccc2)c1NC(=O)NC1CCOc2cc(F)ccc21 (stereo not shown) [Example 12]: 113.5
COCc1ccc2c(c1)C(NC(=O)Nc1c(C)c(-c3cnn(C)c3)nn1-c1ccccc1)COC2 (stereo not shown) [Example 32]: 102
Cc1c(-c2cnn(C)c2)nn(-c2ccccc2)c1NC(=O)N[C@H]1CCCc2ccccc21 [Example 2]: 137.5
